src = the OligoGym collection

- Assayed target: RHOQ
- Test description: reporter assay of Huesken 2005
- Run parameters: siRNA
Oligonucleotides are written 5' to 3', each unit as a sugar letter and its base; * is a phosphorothioate linkage, no mark a phosphodiester; rarer units and linkages stand in square brackets, end groups in braces. Plain capitals give the bases only. d = 2'-deoxy (DNA); r = 2'-OH (RNA)
Lab note: compare normalised inhibition (eCFP-eYFP dual reporter) against 80%. Equal or greater, write T. Smaller, write F.

Consider the worked cases shown below.
{"Substance": "sense rUrGrUrGrGrArUrCrUrGrCrCrUrUrArUrUrGrCdTdT / antisense rGrCrArArUrArArGrGrCrArGrArUrCrCrArCrAdGdC", "Assayed target": "RHOQ", "Label": "F"}
{"Substance": "sense rGrCrArUrCrArGrArUrArArUrGrGrUrGrUrUrAdTdT / antisense rUrArArCrArCrCrArUrUrArUrCrUrGrArUrGrCdAdT", "Assayed target": "RHOQ", "Label": "T"}

Q: Does sense rUrArCrUrGrGrArUrGrArCrUrGrGrCrCrArGrGdTdT / antisense rCrCrUrGrGrCrCrArGrUrCrArUrCrCrArGrUrAdGdA have a reported normalised inhibition (eCFP-eYFP dual reporter) of at least 80%?
A: F

Q: Check the entry sense rCrArUrUrUrGrGrArUrGrUrCrUrUrCrUrUrUrCdTdT / antisense rGrArArArGrArArGrArCrArUrCrCrArArArUrGdTdC : does normalised inhibition (eCFP-eYFP dual reporter) equal or exceed 80%?
A: F

Q: Test whether the substance sense rUrGrCrUrGrUrUrGrCrCrCrArArArUrUrArUrAdTdT / antisense rUrArUrArArUrUrUrGrGrGrCrArArCrArGrCrAdAdG records normalised inhibition (eCFP-eYFP dual reporter) of 80% or higher.
A: T

Q: Could you please find out whether sense rGrArArArGrGrArArUrUrGrUrArUrArArArUrCdTdT / antisense rGrArUrUrUrArUrArCrArArUrUrCrCrUrUrUrCdAdA has normalised inhibition (eCFP-eYFP dual reporter) that meets 80% or exceeds it?
A: F

Q: Assess whether reported normalised inhibition (eCFP-eYFP dual reporter) for sense rArUrCrArGrUrCrArCrArArArUrCrUrArGrGrAdTdT / antisense rUrCrCrUrArGrArUrUrUrGrUrGrArCrUrGrArUdAdT sits at 80% or higher.
A: F

Q: Identify whether the reported normalised inhibition (eCFP-eYFP dual reporter) of the following substance is 80% or greater: sense rUrGrGrArUrCrUrGrCrCrUrUrArUrUrGrCrArUdTdT / antisense rArUrGrCrArArUrArArGrGrCrArGrArUrCrCrAdCdA
A: T

Q: normalised inhibition (eCFP-eYFP dual reporter) >= 80% for sense rCrUrCrArArArUrGrGrArArUrCrUrUrArUrGrUdTdT / antisense rArCrArUrArArGrArUrUrCrCrArUrUrUrGrArGdCdA ?
A: F

Q: Does the substance sense rCrUrArCrArUrUrUrArArArCrUrUrGrCrUrGrUdTdT / antisense rArCrArGrCrArArGrUrUrUrArArArUrGrUrArGdGdA have recorded normalised inhibition (eCFP-eYFP dual reporter) that is 80% or more?
A: T
